Data provenance: patent US20250051277A1

Overview of recorded Prodrug (%) remaining, Human Plasma for various molecules
# ASSAY SETUP: 0 h, 10 μM
Your answer should be a plain number; it is taken to be in %.

Here is how some molecules turned out for Prodrug (%) remaining, Human Plasma.
1) CCCC(C)(C)C(=O)OC1=C[C@@H]2N(C)CC[C@]2(c2ccc(OC)c(OC)c2)CC1
100.0
2) CCCCC(CC)C(=O)OC1=C[C@@H]2N(C)CC[C@]2(c2ccc(OC)c(OC)c2)CC1 (some centres unmarked)
100.0
3) COc1ccc([C@@]23CCC(OC(=O)c4cccc(C)c4C)=C[C@@H]2N(C)CC3)cc1OC
100.0
4) COc1ccc([C@@]23CCC(OC(=O)c4c(C)cc(C)cc4C)=C[C@@H]2N(C)CC3)cc1OC
100.0

Okay, next one:
IN: For the molecule `COc1ccc([C@@]23CCC(OC(=O)CC(C)(C)C)=C[C@@H]2N(C)CC3)cc1OC` , report Prodrug (%) remaining, Human Plasma.
OUT: 100.0
